# measurement.target: T1, TNF-alpha (human, UniProt P01375 77-233)
# T1 construct: also called TNFα; TNF-α
# T1 sequence (P01375 77-233 limits assumed): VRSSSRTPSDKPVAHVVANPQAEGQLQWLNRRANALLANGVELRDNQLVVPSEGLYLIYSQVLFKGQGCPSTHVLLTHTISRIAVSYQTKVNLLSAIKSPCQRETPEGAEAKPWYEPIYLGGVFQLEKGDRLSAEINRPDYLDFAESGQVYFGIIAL
# measurement.notes: phage ELISA
metric.name: binding result

1) I031G08 (scFv) scFv: QVQLVQSGAEVKKPGSSVKVSCRASGGSFIDDSINWLRQAPGQGLEWVGGTIPLANRANYAQKFRDRATITADELTATVFLELTSLRSDDTALYYCARSSPPKWYDALTGHSSYHSAMDVWGRGTLVTVSSGGGGSGGGGSGGGGSAQSVLTQPPSASGTPGQRVTISCSGTNSNIGGNTVNWYQQLPGTAPRLLIYSNNQRPSGVPDRFSGSKSGTSASLAISGLQSEDEADYYCAARDDRLNAHVVFGGGTKVTVLG; no binding
2) I022E02 (scFv) scFv: QVQLVQSGAEVKKPGASVMVSCKASGYTFSTYAVHWVRQAPGQGLEWMGRINAGNGYTKYSQKFQGRVTITKDTSASAAYMELSSLGSEDTALYYCARATYDPLTGYSFDGLDIWGKGTMVTVSSGGGGSGGGGSGGGGSQSVLTQPASVSGSPGQSITISCTGTSSDVGGYNYVSWYQQHPGKAPKLMIYEGSKRPSGVSNRFSGSKSGNTASLTISGLQAEDEADYYCSSYTTRSTRVFGGGTKLTVLG; no binding
